Assay: yeast TOR pathway reporter LAP4-GFP change – cell-based, cherry picks, flow cytometry, mother/daughter gates, confirmation (AID 2271);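 further: ratio of sample to DMSO plate mean so 100% equals DMSO level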
Details: S. cerevisiae LAP4-GFP strain, 3 h, measured here: daughter cell gate response, at 10 µM, stronger effect = higher value, 100 means same as DMSO control
Listed here are compounds together with their documented GFP response relative to DMSO.

compound: OC(CCN1CCCCC1)(c1ccccc1)c1ccccc1
unit.abbrev: %
GFP response relative to DMSO: 97.2
--
compound: CN/C(=C/[N+](=O)[O-])NCCSCc1ccc(CN(C)C)o1
unit.abbrev: %
GFP response relative to DMSO: 97.6
--
compound: CCOc1nnc(C)c2c(C)n(-c3cccc(OC)c3)nc12
unit.abbrev: %
GFP response relative to DMSO: 98.7
--
compound: CC(=O)Nc1ccc(S(=O)(=O)c2ccc(N)cc2)cc1
unit.abbrev: %
GFP response relative to DMSO: 103
--
compound: CC(=O)[C@@]1(O)CC[C@H]2[C@@H]3CCC4=CC(=O)CC[C@]4(C)[C@H]3[C@@H](O)C[C@@]21C
unit.abbrev: %
GFP response relative to DMSO: 97.9
--
compound: CCOC(=O)C(Cc1cc(C(C)=O)ccc1OC(C)C)C(=O)OCC
unit.abbrev: %
GFP response relative to DMSO: 95
--
compound: Cc1cc(C)c(C(=O)Cn2cnc3cc([N+](=O)[O-])ccc3c2=O)cc1C
unit.abbrev: %
GFP response relative to DMSO: 88.2
--
compound: CC(NCCc1ccc(O)cc1)C(O)c1ccc(O)cc1 (stereo unspecified)
unit.abbrev: %
GFP response relative to DMSO: 96
--
compound: C[C@]12CC[C@@H]3c4ccc(O)cc4C(=O)C[C@H]3[C@@H]1CC[C@@H]2O
unit.abbrev: %
GFP response relative to DMSO: 95.6
--
compound: O=C1ON=C(c2ccc(Cl)cc2)/C1=C/c1ccc(O)cc1
unit.abbrev: %
GFP response relative to DMSO: 95.6
--
compound: COCCN1C(=O)/C(=C/c2ccc(N3CCCC3)cc2C)SC1=S
unit.abbrev: %
GFP response relative to DMSO: 117
